These data points were gathered from PubChem BioAssay (NCI).

- Test system: OVCAR-5 ovarian
- assay.remarks: NCI tumour cell line growth inhibition, 48 h
observation.type: GI50

Q: Look up and state reported GI50 for O=C1CCC(N2C(=O)c3cccc(NCCOCCOCCNC(=O)c4cc5c(o4)C(=O)c4ccccc4C5=O)c3C2=O)C(=O)N1 (stereo unspecified)
A: 1.67 µM

Q: Query GI50 for COCC(=O)NC/C=C/c1ccc2ncnc(Nc3ccc(Oc4ccc(C)nc4)c(C)c3)c2c1
A: 12.7 µM

Q: Indicate the recorded GI50 value for this molecule: CN1CCN(c2ccc(-c3cccc(CN4CCOCC4)c3)cc2NC(=O)c2c[nH]c(=O)cc2C(F)(F)F)CC1
A: > 100 µM

Q: Quickly give me recorded GI50 for COc1ccccc1N1CCN(CCCOc2ccc(C(=O)/C=C3/C(=O)Nc4ccccc43)cc2)CC1
A: 16.6 µM

Q: Item CC(C)c1cc(C(=O)[O-])c(O)c(C(C)C)c1.CC(C)c1cc(C(=O)[O-])c(O)c(C(C)C)c1.CC(C)c1cc(C(=O)[O-])c(O)c(C(C)C)c1.CC(C)c1cc(C(=O)[O-])c(O)c(C(C)C)c1.CC(C)c1cc(C(=O)[O-])c(O)c(C(C)C)c1.CC(C)c1cc(C(=O)[O-])c(O)c(C(C)C)c1.[Cu+2].[Mn+2].[Mn+2] : provide GI50
A: 28.2 µM

Q: Provide one value: measured GI50 of COc1ccc(-c2nc(SC)n(C3OC(COC(C)=O)C(OC(C)=O)C(OC(C)=O)C3OC(C)=O)c(=O)c2C#N)cc1 (stereo unspecified)
A: > 100 µM
